# assayedSystem: HDAC3 (Homo sapiens, UniProt O15379)
# Sequence (O15379 whole entry): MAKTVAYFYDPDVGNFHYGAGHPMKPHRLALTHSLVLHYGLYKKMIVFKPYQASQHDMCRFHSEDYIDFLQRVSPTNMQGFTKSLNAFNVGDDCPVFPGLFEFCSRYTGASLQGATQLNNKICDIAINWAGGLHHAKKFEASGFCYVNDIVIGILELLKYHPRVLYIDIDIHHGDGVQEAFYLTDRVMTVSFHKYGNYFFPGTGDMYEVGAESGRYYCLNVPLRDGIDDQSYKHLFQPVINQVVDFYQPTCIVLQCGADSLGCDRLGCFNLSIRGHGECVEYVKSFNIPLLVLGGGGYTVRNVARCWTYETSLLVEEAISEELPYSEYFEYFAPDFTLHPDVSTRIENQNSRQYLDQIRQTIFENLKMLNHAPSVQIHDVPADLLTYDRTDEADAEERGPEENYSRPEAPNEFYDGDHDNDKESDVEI
readoutName: Ki

### Prompt // Ki lookup, key: C[Se]CCC(=O)C(=O)O [KMSB, α-keto-γ-methylselenobutyrate]
### Response ~30 µM

Ref: paper PMC2902275
